# Measured on: UniProt:P01375
# Sequence (P01375 77-233): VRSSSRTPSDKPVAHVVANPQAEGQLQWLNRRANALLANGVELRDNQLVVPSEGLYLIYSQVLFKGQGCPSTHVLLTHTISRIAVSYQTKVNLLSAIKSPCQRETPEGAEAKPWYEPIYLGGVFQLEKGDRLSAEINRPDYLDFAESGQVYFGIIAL
# Procedure text: TNF-α thermal melt assay
# Format: binding
# Set-up: Amino acids 77-233 of Human TNF-α protein with an N-terminal GST tag; GST (N, cleaved yes); made in house; host or cells: Escherichia coli (BL21 NiCo)
# Test settings: thermal melt, SYPRO Orange, Kd calculated as in Matulis et al.; read-out: TM Kd
# Description: Protein was purified using glutathione agarose purification columns (Pierce™, Waltham, MA, USA). Following purification, the GST tag was removed using HRV3c protease (Pierce™, Waltham, MA, USA) and the GST tag and the TNF-α were separated via ion exchange chromatography using a 20 mM HEPES pH 8.0 buffer system ramping from 0 to 1 M NaCl over 12 column volumes with 5 ml of Q Sepharose (HiScreen Q HP, Cytiva™, Marlborough, MA, USA). […]
For each entry below, report its Kd value.

These recorded examples may help you get a feel for the data.
CCC(=O)NC1COC(COCCOCCOCCOCCn2cc(COCC(COCc3cn(CCOCCOCCOCCOCC4OCC(NC(=O)CC)C(O)C4O)nn3)(COCc3cn(CCOCCOCCOCCOCC4OCC(NC(=O)CC)C(O)C4O)nn3)NC(=O)CNC(=O)CCOCCOCCC(=O)N3CCN(Cc4ccc(-c5c[nH]c6ccncc56)c(OCCc5ccc(-c6cccc7ccncc67)cc5)c4)CC3)nn2)C(O)C1O (stereo not shown) [Compound 103]: 1000 nM
O=C(O)CCOCCOCCOCCOCCOCCOCCOCCOCCC(=O)N1CCN(Cc2ccc(-c3c[nH]c4ccncc34)c(OCCc3ccc(-c4cccc5ccncc45)cc3)c2)CC1 [Intermediate 4]: 69 nM
CCC(=O)N[C@H]1CO[C@H](COCCOCCOCCOCCn2cc(COCCNC(=O)CNC(=O)CCOCCOCCC(=O)N3CCN(Cc4ccc(-c5c[nH]c6ccncc56)c(OCCc5ccc(-c6cccc7ccncc67)cc5)c4)CC3)nn2)[C@H](O)[C@@H]1O [Compound 107]: 55 nM

Query: Tell me measured Kd for CC(C)(C)OC(=O)CCOCCOCCC(=O)N1CCN(Cc2ccc(-c3c[nH]c4ccncc34)c(OCCc3ccc(-c4cccc5ccncc45)cc3)c2)CC1 [Intermediate 23] please.
Result: 31 nM
